# target entity: 5-HT-1A receptors (Rattus norvegicus, UniProt P19327)
# Sequence (P19327 1-422): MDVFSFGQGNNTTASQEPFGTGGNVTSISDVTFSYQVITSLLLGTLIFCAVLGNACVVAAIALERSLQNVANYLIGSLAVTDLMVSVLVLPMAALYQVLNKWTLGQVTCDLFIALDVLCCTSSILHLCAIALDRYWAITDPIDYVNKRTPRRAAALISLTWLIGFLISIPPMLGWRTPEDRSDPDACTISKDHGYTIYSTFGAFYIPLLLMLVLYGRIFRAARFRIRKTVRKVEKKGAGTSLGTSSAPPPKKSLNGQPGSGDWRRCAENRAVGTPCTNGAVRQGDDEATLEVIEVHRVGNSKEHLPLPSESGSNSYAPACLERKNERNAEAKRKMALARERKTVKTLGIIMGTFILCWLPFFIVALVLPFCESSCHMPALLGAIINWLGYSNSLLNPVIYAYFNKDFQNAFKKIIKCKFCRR
Listing of recorded log10 of Ki by entry.
Could you please treat all values as log10 of Ki in nM?

Illustrative cases are given below, each with its answer.
Cn1ncc(NCCN2CCN(c3ccccc3)CC2)c(Cl)c1=O; 2.03
COc1ccccc1N1CCN(CCNc2cn[nH]c(=O)c2Cl)CC1; 1.43
COc1ccccc1N1CCN(CCNc2cnn(C(C)(C)C)c(=O)c2)CC1; 1.82

Exercise: # lookup: log10 of Ki of `Cn1ncc(Cl)c(NCCN2CCN(c3cccc(C(F)(F)F)c3)CC2)c1=O`
Solution: 0.92

Exercise: # lookup: log10 of Ki of `CCOc1ccccc1N1CCN(CCNc2cnn(C)c(=O)c2Cl)CC1`
Solution: 1.57

Exercise: # lookup: log10 of Ki of `COc1ccccc1N1CCN(CCNc2c(Cl)cnn(C)c2=O)CC1`
Solution: 1.22

Exercise: # lookup: log10 of Ki of `COc1ccc(C)cc1N1CCN(CCNc2c(Cl)cnn(C)c2=O)CC1`
Solution: 1.93

Exercise: # lookup: log10 of Ki of `COc1ccccc1N1CCN(CCCNc2cnn(C)c(=O)c2Cl)CC1`
Solution: 1.71

Exercise: # lookup: log10 of Ki of `COc1cc(C)ccc1N1CCN(CCNc2ccnn(C)c2=O)CC1`
Solution: 2.43
